# TARGET_OR_SYSTEM: human recombinant serotonin (5-Hydroxytryptamine) 5-HT7 receptor (Homo sapiens, UniProt P34969)
# Construct: expressed in transfected cells; host or cells: CHO
# Sequence (P34969 whole entry): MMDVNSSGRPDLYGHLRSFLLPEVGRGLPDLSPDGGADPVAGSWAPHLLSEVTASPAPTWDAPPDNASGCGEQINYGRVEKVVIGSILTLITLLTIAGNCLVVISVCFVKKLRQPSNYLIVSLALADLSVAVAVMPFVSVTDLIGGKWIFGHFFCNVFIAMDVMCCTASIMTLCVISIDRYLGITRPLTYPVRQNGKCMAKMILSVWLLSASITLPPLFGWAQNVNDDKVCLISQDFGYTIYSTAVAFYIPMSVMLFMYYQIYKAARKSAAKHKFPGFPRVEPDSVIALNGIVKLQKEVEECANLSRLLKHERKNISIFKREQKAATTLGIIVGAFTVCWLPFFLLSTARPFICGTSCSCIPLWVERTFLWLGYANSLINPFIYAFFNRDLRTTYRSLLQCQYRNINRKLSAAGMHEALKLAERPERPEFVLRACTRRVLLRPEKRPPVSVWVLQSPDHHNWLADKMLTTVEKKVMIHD
# TEST_PROTOCOL: Serotonin 5-HT7 radioligand binding ([3H]LSD)
# TEST_SETTINGS: compound at 0.1 μM; read-out: Percentage inhibition of ligand binding, Serotonin (0.1 μM) 5-HT7
The reader will find reported inhibition at 0.1 µM values listed item by item below.
MEASURE_NAME: inhibition at 0.1 µM

> print(dat)
                                smiles.text          measure.name  result
1  Cc1cc(C#Cc2ccncc2)c2c(c1)c1c(n2C)CCN(C)C1  inhibition at 0.1 µM     23%
2       CN1CCc2[nH]c3c(NCc4ccncc4)cccc3c2C1  inhibition at 0.1 µM    -10%
3       CN1CCc2[nH]c3c(NCc4ccccc4)cccc3c2C1  inhibition at 0.1 µM     14%
4  C/C(=C\c1cc(C)cc2c3c(n(C)c12)CCN(C)C3)c1ccncc1  inhibition at 0.1 µM    -17%
5  Cc1cc(C#Cc2ccc(C)nc2)c2[nH]c3c(c2c1)CN(C)CC3  inhibition at 0.1 µM     43%

###

# TARGET_OR_SYSTEM: human recombinant dopamine D2L receptor (Homo sapiens, UniProt P14416)
# Construct: expressed in transfected cells; host or cells: CHO
# Sequence (P14416 whole entry): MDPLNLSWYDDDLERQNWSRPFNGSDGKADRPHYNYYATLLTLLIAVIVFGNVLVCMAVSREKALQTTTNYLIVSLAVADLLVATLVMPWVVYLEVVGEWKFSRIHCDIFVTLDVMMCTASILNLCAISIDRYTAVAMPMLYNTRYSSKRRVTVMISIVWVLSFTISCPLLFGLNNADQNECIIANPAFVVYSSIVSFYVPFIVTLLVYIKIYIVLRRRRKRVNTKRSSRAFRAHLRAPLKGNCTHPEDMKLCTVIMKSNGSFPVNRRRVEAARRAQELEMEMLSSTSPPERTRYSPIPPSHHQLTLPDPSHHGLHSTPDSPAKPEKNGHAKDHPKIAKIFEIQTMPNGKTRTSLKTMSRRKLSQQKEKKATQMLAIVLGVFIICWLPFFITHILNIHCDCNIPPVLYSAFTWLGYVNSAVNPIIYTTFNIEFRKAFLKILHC
# TEST_PROTOCOL: Dopamine D2L radioligand binding ([3H]Spiperone)
# TEST_SETTINGS: compound at 1 μM; read-out: Percentage inhibition of ligand binding, Dopamine (1 μM) D2L
Label MET when inhibition at 1 µM is at or above 10%; otherwise label NOT MET.

> print(dat)
                                smiles.text    class
1  Cc1cc(C#Cc2cccs2)c2[nH]c3c(c2c1)CN(C)CC3  NOT MET
2         C#Cc1cc(C)cc2c3c(n(C)c12)CCN(C)C3      MET
3  Cc1cc(/C=C/c2ccc(C)nc2)c2c(c1)c1c(n2C)CCN(C)C1      MET
4  Cc1cc(C#Cc2nccs2)c2[nH]c3c(c2c1)CN(C)CC3  NOT MET
5  C/C(=C\c1cc(C)cc2c3c(n(C)c12)CCN(C)C3)c1ccc(C)nc1  NOT MET
6    CN1CCc2[nH]c3c(N(C)Cc4ccccc4)cccc3c2C1      MET
7   Cc1cc(-c2ccncc2)c2c(c1)c1c(n2C)CCN(C)C1  NOT MET

###

# TARGET_OR_SYSTEM: human recombinant serotonin (5-Hydroxytryptamine) 5-HT2C receptor (Homo sapiens)
# Construct: expressed in transfected cells; host or cells: CHO-K1
# Sequence (P28335 33-458): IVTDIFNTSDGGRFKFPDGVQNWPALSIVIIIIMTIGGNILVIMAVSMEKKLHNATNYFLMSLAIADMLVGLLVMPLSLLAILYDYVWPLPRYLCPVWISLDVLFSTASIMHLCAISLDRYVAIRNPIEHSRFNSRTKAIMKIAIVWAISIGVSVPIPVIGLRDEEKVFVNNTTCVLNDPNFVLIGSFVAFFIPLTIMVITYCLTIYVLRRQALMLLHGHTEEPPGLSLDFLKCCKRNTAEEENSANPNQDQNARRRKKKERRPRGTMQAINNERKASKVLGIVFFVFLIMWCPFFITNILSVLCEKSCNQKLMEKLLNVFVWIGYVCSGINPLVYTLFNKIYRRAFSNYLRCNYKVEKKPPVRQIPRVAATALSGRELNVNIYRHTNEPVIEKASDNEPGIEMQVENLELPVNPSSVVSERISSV
# TEST_PROTOCOL: Serotonin 5-HT2C radioligand binding ([3H]Mesulergine)
# TEST_SETTINGS: compound at 0.1 μM; read-out: Percentage inhibition of ligand binding, Serotonin (0.1 μM) 5-HT2C
# Experimental: To evaluate in radioligand binding assays the activity of compounds of the invention, human recombinant serotonin (5-Hydroxytryptamine) 5-HT2C receptor expressed in Chinese hamster ovary (CHO) K1 cells (Wolf, W. et al, J. Neurochem. 69:1449, 1997) in a modified Tris-HCl buffer (50 mM Tris-HCl, pH 7.4, 0.1% Ascorbic Acid, 10 μM Pargyline) was used. […] Receptor proteins were filtered and washed, the filters were then counted to determine [^3H]Mesulergine specifically bound. […]
MEASURE_NAME: inhibition at 0.1 µM

> print(dat)
                                   compound  result
1  Cc1cc(-c2ccncc2)c2c(c1)c1c(n2C)CCN(C)C1 [Compound 9]      9%
2  CN1CCc2[nH]c3c(NCc4ccncc4)cccc3c2C1 [Compound 4]      7%
3  Cc1ccc(C#Cc2cc(Cl)cc3c4c(n(C)c23)CCN(C)C4)cn1 [Compound 18]     27%
4  C/C(=C\c1cc(C)cc2c3c(n(C)c12)CCN(C)C3)c1ccc(C)nc1 [Compound 15]     28%
5  Cc1cc(C#Cc2ccncc2)c2c(c1)c1c(n2C)CCN(C)C1 [Compound 17]     19%
6  Cc1cc(/C=C/c2ccc(C)nc2)c2c(c1)c1c(n2C)CCN(C)C1 [Compound 14]      1%
7  Cc1cc(CCc2ccc(C)nc2)c2c(c1)c1c(n2C)CCN(C)C1 [Compound 13]    -11%
8  Cc1cc(-c2ccc(F)cc2)c2c(c1)c1c(n2C)CCN(C)C1 [Compound 7]     36%
9  CN1CCc2[nH]c3c(N(C)Cc4ccccc4)cccc3c2C1 [Compound 1]     55%

###

# TARGET_OR_SYSTEM: human recombinant histamine H1 receptor (Homo sapiens, UniProt P35367)
# Construct: expressed in transfected cells; host or cells: CHO-K1
# Sequence (P35367 whole entry): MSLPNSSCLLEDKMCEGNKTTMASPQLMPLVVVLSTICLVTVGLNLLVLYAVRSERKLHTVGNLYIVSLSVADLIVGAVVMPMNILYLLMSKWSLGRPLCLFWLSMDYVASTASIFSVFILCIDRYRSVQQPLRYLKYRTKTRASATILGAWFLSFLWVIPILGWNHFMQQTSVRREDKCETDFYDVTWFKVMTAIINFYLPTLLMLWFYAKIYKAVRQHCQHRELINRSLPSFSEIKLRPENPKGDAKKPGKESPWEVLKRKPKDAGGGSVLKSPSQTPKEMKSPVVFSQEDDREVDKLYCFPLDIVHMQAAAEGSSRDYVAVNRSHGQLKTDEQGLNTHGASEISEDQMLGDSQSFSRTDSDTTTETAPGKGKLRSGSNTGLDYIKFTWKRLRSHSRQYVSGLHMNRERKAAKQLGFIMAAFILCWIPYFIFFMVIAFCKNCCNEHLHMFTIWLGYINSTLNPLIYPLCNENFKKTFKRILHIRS
# TEST_PROTOCOL: Histamine H1 radioligand binding ([3H]Pyrilamine)
# TEST_SETTINGS: compound at 1 μM; 1.2 nM [3H]Pyrilamine; read-out: Binding data (Percentage inhibition) Histamine H1 (1 μM)
The reader will find reported inhibition at 1 µM values listed item by item below.
MEASURE_NAME: inhibition at 1 µM

> print(dat)
                                smiles.text  result
1  Cc1cc(C#Cc2ccncc2)c2[nH]c3c(c2c1)CN(C)CC3     17%
2  Cc1cc(CCc2ccc(C)nc2)c2[nH]c3c(c2c1)CN(C)CC3     58%
3       CN1CCc2[nH]c3c(NCc4ccncc4)cccc3c2C1     15%
4    CN1CCc2[nH]c3c(N(C)Cc4ccccc4)cccc3c2C1      6%
5       CN1CCc2[nH]c3c(NCc4ccccc4)cccc3c2C1     14%
6  Cc1cc(C#Cc2ccc(C)nc2)c2[nH]c3c(c2c1)CN(C)CC3     16%

###

The reader will find reported inhibition at 0.1 µM values listed item by item below.
# TARGET_OR_SYSTEM: rat adrenergic α1A receptor (Rattus norvegicus, UniProt P43140)
# Construct: rat adrenergic α1A receptor obtained from Wistar Rat submaxillary glands; from tissue; host or cells: Wistar rat submaxillary glands
# Sequence (P43140 whole entry): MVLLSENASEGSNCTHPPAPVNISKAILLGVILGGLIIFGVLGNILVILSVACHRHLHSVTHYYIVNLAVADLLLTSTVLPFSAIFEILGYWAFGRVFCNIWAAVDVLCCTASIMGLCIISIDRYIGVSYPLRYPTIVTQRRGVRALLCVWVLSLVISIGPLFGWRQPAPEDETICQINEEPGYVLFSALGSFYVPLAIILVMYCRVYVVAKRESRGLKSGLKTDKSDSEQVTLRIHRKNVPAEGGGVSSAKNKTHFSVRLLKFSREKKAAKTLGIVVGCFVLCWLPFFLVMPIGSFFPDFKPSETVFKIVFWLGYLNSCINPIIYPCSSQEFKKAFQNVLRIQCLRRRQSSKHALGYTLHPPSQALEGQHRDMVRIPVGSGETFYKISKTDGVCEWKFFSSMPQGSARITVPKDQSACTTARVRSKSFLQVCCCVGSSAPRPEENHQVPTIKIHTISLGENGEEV
# TEST_PROTOCOL: Adrenergic α1A radioligand binding ([3H]Prazosin)
# TEST_SETTINGS: compound at 0.1 μM; read-out: Percentage inhibition of ligand binding, Adrenergic (0.1 μM) α1A
MEASURE_NAME: inhibition at 0.1 µM (%)

> print(dat)
                                smiles.text                          target.or.system          measure.name  recorded.number
1  Cc1ccc(C#Cc2cc(Cl)cc3c4c(n(C)c23)CCN(C)C4)cn1  rat adrenergic α1A receptor (Rattus norvegicus, UniProt P43140)  inhibition at 0.1 µM               14
2         C#Cc1cc(C)cc2c3c(n(C)c12)CCN(C)C3  rat adrenergic α1A receptor (Rattus norvegicus, UniProt P43140)  inhibition at 0.1 µM                6
3  Cc1cc(C#Cc2ccncc2)c2c(c1)c1c(n2C)CCN(C)C1  rat adrenergic α1A receptor (Rattus norvegicus, UniProt P43140)  inhibition at 0.1 µM               -2

###

# TARGET_OR_SYSTEM: human recombinant serotonin (5-Hydroxytryptamine) 5-HT6 receptor (Homo sapiens)
# Construct: expressed in transfected cells; host or cells: HeLa
# Sequence (P50406 whole entry): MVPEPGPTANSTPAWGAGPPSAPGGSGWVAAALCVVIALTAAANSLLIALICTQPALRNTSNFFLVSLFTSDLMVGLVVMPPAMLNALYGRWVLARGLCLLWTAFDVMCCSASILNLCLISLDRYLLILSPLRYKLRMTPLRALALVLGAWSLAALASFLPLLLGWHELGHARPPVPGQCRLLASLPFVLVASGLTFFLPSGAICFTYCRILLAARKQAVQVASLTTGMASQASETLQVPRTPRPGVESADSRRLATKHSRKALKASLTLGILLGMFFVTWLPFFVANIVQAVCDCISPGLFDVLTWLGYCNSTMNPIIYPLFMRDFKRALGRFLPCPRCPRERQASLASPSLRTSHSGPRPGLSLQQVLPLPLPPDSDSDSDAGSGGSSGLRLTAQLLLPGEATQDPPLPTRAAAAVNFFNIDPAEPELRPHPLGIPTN
# TEST_PROTOCOL: Serotonin 5-HT6 radioligand binding ([3H]LSD)
# TEST_SETTINGS: compound at 0.1 μM; read-out: Percentage inhibition of ligand binding, Serotonin (0.1 μM) 5-HT6
Label label 1 when inhibition at 0.1 µM is at or above 10%; otherwise label label 0.

> print(dat)
                                smiles.text    class
1         C#Cc1cc(C)cc2c3c(n(C)c12)CCN(C)C3  label 1
2  Cc1cc(C#Cc2nccs2)c2[nH]c3c(c2c1)CN(C)CC3  label 1
3  Cc1cc(C#Cc2ccc(C)nc2)c2[nH]c3c(c2c1)CN(C)CC3  label 1
4  Cc1cc(C#Cc2ccc(C)nc2)c2c(c1)c1c(n2C)CCN(C)C1  label 0
5       CN1CCc2[nH]c3c(NCc4ccncc4)cccc3c2C1  label 0
6  Cc1cc(C#Cc2ccncc2)c2[nH]c3c(c2c1)CN(C)CC3  label 1
7       CN1CCc2[nH]c3c(NCc4ccccc4)cccc3c2C1  label 1
8  Cc1cc(CCc2ccc(C)nc2)c2[nH]c3c(c2c1)CN(C)CC3  label 0

###

The reader will find reported inhibition at 0.1 µM values listed item by item below.
# TARGET_OR_SYSTEM: human recombinant serotonin (5-Hydroxytryptamine) 5-HT7 receptor (Homo sapiens)
# Construct: expressed in transfected cells; host or cells: CHO
# TEST_PROTOCOL: Serotonin 5-HT7 radioligand binding ([3H]LSD)
# TEST_SETTINGS: compound at 0.1 μM; read-out: Percentage inhibition of ligand binding, Serotonin (0.1 μM) 5-HT7
MEASURE_NAME: inhibition at 0.1 µM

> print(dat)
                                   compound          measure.name  result
1  Cc1ccc(C#Cc2cc(Cl)cc3c4c(n(C)c23)CCN(C)C4)cn1 [Compound 18]  inhibition at 0.1 µM      8%
2  Cc1cc(/C=C/c2ccc(C)nc2)c2c(c1)c1c(n2C)CCN(C)C1 [Compound 14]  inhibition at 0.1 µM     13%
3  CN1CCc2[nH]c3c(N(C)Cc4ccccc4)cccc3c2C1 [Compound 1]  inhibition at 0.1 µM      9%
4  Cc1cc(C#Cc2cccs2)c2[nH]c3c(c2c1)CN(C)CC3 [Compound 8]  inhibition at 0.1 µM      6%
5  Cc1cc(-c2ccncc2)c2c(c1)c1c(n2C)CCN(C)C1 [Compound 9]  inhibition at 0.1 µM     26%
6  C#Cc1cc(C)cc2c3c(n(C)c12)CCN(C)C3 [Compound 10]  inhibition at 0.1 µM     14%
7  Cc1cc(C#Cc2ccc(C)nc2)c2c(c1)c1c(n2C)CCN(C)C1 [Compound 12]  inhibition at 0.1 µM      5%
8  Cc1cc(C#Cc2nccs2)c2[nH]c3c(c2c1)CN(C)CC3 [Compound 16]  inhibition at 0.1 µM     35%
9  Cc1cc(CCc2ccc(C)nc2)c2[nH]c3c(c2c1)CN(C)CC3 [Compound 2]  inhibition at 0.1 µM     17%
